biological target: UniProt P06401; test: Antagonist activity at progesterone receptor in human T47D cells assessed as inhibition of progesterone-induced alkaline phosphatase activity
Sequence (P06401 whole entry): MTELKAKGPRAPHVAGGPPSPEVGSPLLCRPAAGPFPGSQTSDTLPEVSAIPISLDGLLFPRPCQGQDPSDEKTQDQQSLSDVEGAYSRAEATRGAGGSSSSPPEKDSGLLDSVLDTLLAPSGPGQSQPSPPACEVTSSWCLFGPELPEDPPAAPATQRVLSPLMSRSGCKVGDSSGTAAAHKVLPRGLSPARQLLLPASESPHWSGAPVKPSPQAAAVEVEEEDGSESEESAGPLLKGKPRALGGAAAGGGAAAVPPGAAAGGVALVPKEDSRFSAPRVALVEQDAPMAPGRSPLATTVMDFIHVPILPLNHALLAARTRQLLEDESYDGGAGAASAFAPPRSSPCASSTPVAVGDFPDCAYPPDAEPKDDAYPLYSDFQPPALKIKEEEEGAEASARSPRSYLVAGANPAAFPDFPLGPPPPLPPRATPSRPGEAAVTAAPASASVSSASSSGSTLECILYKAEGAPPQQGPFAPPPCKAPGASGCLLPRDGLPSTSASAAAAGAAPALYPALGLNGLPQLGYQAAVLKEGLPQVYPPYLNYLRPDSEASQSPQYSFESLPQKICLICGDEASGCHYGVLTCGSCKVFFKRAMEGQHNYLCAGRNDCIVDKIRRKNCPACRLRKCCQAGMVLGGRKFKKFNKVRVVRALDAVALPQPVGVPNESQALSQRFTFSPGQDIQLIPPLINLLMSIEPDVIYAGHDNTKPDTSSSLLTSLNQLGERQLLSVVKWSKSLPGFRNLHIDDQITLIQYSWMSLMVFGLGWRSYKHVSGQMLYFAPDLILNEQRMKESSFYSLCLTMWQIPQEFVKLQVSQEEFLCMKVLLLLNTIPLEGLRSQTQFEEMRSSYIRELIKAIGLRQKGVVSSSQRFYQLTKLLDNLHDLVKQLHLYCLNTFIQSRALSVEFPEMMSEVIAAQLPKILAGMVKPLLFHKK
pIC50: −log10 of the molar value.

{"columns": ["smiles.data", "target.system", "relation.symbol", "pIC50"],
 "data": [
  ["C#C[C@]1(O)CC[C@H]2[C@@H]3CCC4=CC(=O)CCC4=C3[C@@H](c3ccc(OC)cc3)OC[C@@]21C", "UniProt P06401", "<", 6.00],
  ["CN(C)c1ccc([C@H]2OC[C@@]3(C)[C@@H](CC[C@@]3(O)C(F)(F)C(F)(F)F)[C@@H]3CCC4=CC(=O)CCC4=C32)cc1", "UniProt P06401", "=", 7.44],
  ["C#C[C@]1(O)CC[C@H]2[C@@H]3CCC4=CC(=O)CCC4=C3[C@@H](c3ccc(N(C)C)cc3)OC[C@@]21C", "UniProt P06401", "=", 7.48],
  ["COc1ccc([C@H]2OC[C@@]3(C)[C@@H](CC[C@@]3(O)C#Cc3ccccc3)[C@@H]3CCC4=CC(=O)CCC4=C32)cc1", "UniProt P06401", "=", 6.55]
]}

###

Target: UniProtKB P04150
Sequence (P04150 whole entry): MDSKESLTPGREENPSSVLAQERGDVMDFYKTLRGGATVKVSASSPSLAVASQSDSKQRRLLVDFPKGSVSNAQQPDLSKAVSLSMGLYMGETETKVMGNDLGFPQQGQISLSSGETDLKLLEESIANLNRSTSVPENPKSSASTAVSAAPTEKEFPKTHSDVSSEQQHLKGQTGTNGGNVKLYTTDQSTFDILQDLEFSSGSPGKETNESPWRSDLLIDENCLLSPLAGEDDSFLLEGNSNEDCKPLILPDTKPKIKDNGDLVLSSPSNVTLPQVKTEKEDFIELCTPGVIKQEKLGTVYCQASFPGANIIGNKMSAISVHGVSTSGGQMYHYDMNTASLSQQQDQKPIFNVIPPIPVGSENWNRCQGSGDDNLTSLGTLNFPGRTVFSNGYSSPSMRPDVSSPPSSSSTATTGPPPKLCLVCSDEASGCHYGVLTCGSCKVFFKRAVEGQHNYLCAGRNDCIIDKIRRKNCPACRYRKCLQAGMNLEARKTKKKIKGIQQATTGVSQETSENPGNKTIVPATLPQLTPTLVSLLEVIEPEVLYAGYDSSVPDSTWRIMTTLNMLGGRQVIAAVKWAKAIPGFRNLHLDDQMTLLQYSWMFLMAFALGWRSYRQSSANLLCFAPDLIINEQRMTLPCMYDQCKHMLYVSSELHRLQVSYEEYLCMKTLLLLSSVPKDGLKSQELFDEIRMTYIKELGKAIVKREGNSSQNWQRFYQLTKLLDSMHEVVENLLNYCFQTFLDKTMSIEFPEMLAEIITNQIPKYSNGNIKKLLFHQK
Assay: Antagonist activity at glucocorticoid receptor in human A549 cells assessed as inhibition of corticoid-induced transcription after 16 hrs by glucocorticoid response element-driven luciferase reporter gene assay
Field: label. Allowed values: class 1 (IC50 < 100 nM) or class 0 (IC50 >= 100 nM).

{"columns": ["smiles.data", "group.label"],
 "data": [
  ["C=C(C)[C@]1(O)CC[C@H]2[C@@H]3CCC4=CC(=O)CCC4=C3[C@@H](c3ccc(SC)cc3)OC[C@@]21C", "class 1"],
  ["C=C(C)[C@]1(O)CC[C@H]2[C@@H]3CCC4=CC(=O)CCC4=C3[C@@H](c3ccc(S(C)(=O)=O)cc3)OC[C@@]21C", "class 0"],
  ["COc1ccc([C@H]2OC[C@@]3(C)[C@@H](CC[C@@]3(O)C#Cc3ccccc3)[C@@H]3CCC4=CC(=O)CCC4=C32)cc1", "class 1"],
  ["CC#C[C@]1(O)CC[C@H]2[C@@H]3CCC4=CC(=O)CCC4=C3[C@@H](c3ccc(N(C)C)cc3)OC[C@@]21C", "class 1"],
  ["C#C[C@]1(O)CC[C@H]2[C@@H]3CCC4=CC(=O)CCC4=C3[C@@H](c3ccc(OC)cc3)OC[C@@]21C", "class 0"],
  ["C=C(C)[C@]1(O)CC[C@H]2[C@@H]3CCC4=CC(=O)CCC4=C3[C@@H](c3ccc(N(C)C)cc3)OC[C@@]21C", "class 0"],
  ["C=C1CCO[C@]12CC[C@H]1[C@@H]3CCC4=CC(=O)CCC4=C3[C@@H](c3ccc(OC)cc3)OC[C@@]12C", "class 0"],
  ["CN(C)c1ccc([C@H]2OC[C@]3(C)[C@@H](O)CC[C@H]3[C@@H]3CCC4=CC(=O)CCC4=C32)cc1", "class 0"],
  ["CSc1ccc([C@H]2OC[C@@]3(C)[C@@H](CC[C@@]3(O)C(F)(F)C(F)(F)F)[C@@H]3CCC4=CC(=O)CCC4=C32)cc1", "class 1"],
  ["CN(C)c1ccc([C@H]2OC[C@@]3(C)[C@@H](CC[C@@]3(O)C(F)(F)C(F)(F)F)[C@@H]3CCC4=CC(=O)CCC4=C32)cc1", "class 1"]
]}
